Target: T1, recombinant human PREP (R&D systems, #4308-SE) (human, UniProt P48147 1-710)
T1 sequence: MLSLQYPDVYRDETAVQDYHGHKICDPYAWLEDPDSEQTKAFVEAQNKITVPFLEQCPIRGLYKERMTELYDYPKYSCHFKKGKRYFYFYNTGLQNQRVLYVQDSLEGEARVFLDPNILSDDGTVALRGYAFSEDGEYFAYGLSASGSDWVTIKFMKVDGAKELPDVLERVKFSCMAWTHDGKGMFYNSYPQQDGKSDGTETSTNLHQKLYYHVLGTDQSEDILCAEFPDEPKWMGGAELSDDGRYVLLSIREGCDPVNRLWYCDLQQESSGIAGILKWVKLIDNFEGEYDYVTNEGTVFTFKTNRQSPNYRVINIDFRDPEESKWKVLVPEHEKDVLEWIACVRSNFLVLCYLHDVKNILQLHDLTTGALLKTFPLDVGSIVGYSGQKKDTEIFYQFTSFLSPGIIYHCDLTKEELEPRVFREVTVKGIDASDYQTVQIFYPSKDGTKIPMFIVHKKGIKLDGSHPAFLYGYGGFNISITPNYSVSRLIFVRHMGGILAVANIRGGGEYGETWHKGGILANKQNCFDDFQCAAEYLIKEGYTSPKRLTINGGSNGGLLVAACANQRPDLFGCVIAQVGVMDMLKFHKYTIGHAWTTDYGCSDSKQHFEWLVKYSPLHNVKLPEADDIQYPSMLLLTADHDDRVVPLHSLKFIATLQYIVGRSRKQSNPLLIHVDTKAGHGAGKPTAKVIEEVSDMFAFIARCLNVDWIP
Assay: cell-based or functional assay
Numbered stars: 1 amine (or outer) side, 2 acyl side, 3 side chain; on linkers, the order of the positions; unused ones are H or OH. Bridge positions count the residues as written; N and C are the ends. Square brackets hold non-standard residues; d marks the D form. * marks the point of attachment. Ttds = 1,13-diamino-4,7,10-trioxatridecan-succinamic acid, O=C(CCC(=O)[*:2])NCCCOCCOCCOCCCN[*:1]; DOTA = O=C(O)CN1CCN(CC(=O)O)CCN(CC(=O)*)CCN(CC(=O)O)CC1; mXylylene = c1cc(C[*:1])cc(C[*:2])c1; Nle = CCCC[C@H](N)C(=O)O
test.readout: pIC50 (PREP)
Kindly report the value followed by its unit.

Req: Please indicate pIC50 (PREP) recorded for {DOTA}-[Ttds][Nle]CPPTEFC-NH2 (linker 3-9 via mXylylene; SMILES CCCC[C@H](NC(=O)CCC(=O)NCCCOCCOCCOCCCNC(=O)CN1CCN(CC(=O)O)CCN(CC(=O)O)CCN(CC(=O)O)CC1)C(=O)N[C@H]1CSCc2cccc(c2)CSC[C@@H](C(N)=O)NC(=O)[C@H](Cc2ccccc2)NC(=O)[C@H](CCC(=O)O)NC(=O)[C@H]([C@@H](C)O)NC(=O)[C@@H]2CCCN2C(=O)[C@@H]2CCCN2C1=O, also called 3BP-3319) [DOTA-Ttds-Nle-[Cys(3MeBn)-Pro-Pro-Thr-Glu-Phe-Cys]-NH2]
Resp: 6.2 pIC50
